// read-out IC50, gathered for Protein Mdm4 (Homo sapiens) from published studies
ATTRIBUTE MEASURED: IC50 (µM)

SUBSTANCE SMILES	IC50 [µM]
CC(=O)N[C@@H](CC(C)C)CN(CC(=O)N[C@@H](Cc1ccccc1)CN(CC(=O)N[C@@H](CCC(=O)O)CN(CC(=O)N[C@@H](Cc1c[nH]c2ccccc12)CN(CC(=O)N[C@@H](CCCCN)CN(CC(=O)N[C@@H](CC(C)C)CN(CC(=O)N[C@@H](C)CN(CC(N)=O)S(C)(=O)=O)S(=O)(=O)CC(C)C)S(C)(=O)=O)S(C)(=O)=O)S(C)(=O)=O)S(C)(=O)=O)S(=O)(=O)c1ccc(Cl)cc1	6

a: COc1ccc(COC(=O)N[C@H](C(=O)N[C@@H](CCC(C)=O)C(=O)N[C@@H](Cc2cn(S(=O)(=O)c3c(C)cc(C)cc3C)c3ccccc23)C(=O)N[C@@H](CC(C)C)C(=O)NN)C(C)C)cc1
b: COc1ccc(Cn2c(C)nc(Cc3ccc(N)cc3)c2Cc2ccc(Cl)cc2)cc1
c: CC(C)[C@@H]1NC(=O)Cn2cc(nn2)C[C@H](C(N)=O)NC(=O)[C@@H]2C[C@@H](CN2C(=O)c2ccccc2)NC(=O)[C@H](Cc2cccc(C(F)(F)F)c2)NC(=O)[C@@H](C(C)C)CNC(=O)CNC(=O)[C@H](Cc2ccccc2)NC(=O)[C@H](Cc2c[nH]c3ccccc23)NC1=O
Qu. Thanks in advance: please rank these 3 entries by IC50, highest to lowest. Order the labels as requested and give them as your answer.
Ans. b, a, c
(b: 70 µM, a: 32.4 µM, c: 0.009 µM)
